Test: Anti-ulcer activity: ulcer caused by aspirin
Type: in vivo, rat (male Wistar)
Settings: 100 mg/kg I.P.; aspirin 192 mg/kg per os; standardised to control batch and cimetidine (index 1)
molecules and their reported Ulcer index
In your answer, state the number alone without any accompanying words.

1. CC(=O)N[C@H]1[C@H](Oc2ccc(C(=O)c3ccccc3C)cc2C)O[C@H](CO)[C@@H](O)[C@@H]1O | 0.91
2. OC(c1ccc(Cl)cc1)c1ccc(O[C@@H]2OC[C@@H](O)[C@H](O)[C@H]2O)cc1 (some centres unmarked) | 0.72

Inquiry: Request the reported Ulcer index associated with COc1cc(C(=O)c2ccc(O[C@@H]3OC[C@@H](O)[C@H](O)[C@H]3O)cc2)cc(OC)c1OC
Reply text: 0.46

Inquiry: # input molecule: Cc1cc(C(=O)c2ccc(Cl)cc2)cc(C)c1O[C@@H]1OC[C@@H](O)[C@H](O)[C@H]1O ; wanted: its Ulcer index
Reply text: 1.46

Inquiry: Which Ulcer index value belongs to CC(=O)O[C@@H]1[C@@H](OC(C)=O)[C@H](Oc2ccc(C(=O)c3ccccc3C)cc2)OC[C@H]1OC(C)=O ?
Reply text: 0.78
